# Experimental target: Bcl-2 protein (histag-Bcl-2, UniProtKB P10415) (Homo sapiens (Human), UniProt P10415)
# Sequence (P10415 whole entry): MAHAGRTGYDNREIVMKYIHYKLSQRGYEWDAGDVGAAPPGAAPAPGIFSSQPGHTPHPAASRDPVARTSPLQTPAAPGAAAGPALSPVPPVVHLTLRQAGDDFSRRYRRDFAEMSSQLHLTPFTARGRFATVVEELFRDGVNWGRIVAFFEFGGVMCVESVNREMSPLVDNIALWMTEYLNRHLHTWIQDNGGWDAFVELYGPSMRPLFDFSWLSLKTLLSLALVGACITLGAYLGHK
# Assay summary: Inhibition of Bcl-2 by the fluorescence polarisation technique
# Type: binding
# Conditions used: IC50 (nM) Bcl-2 FP, incubation for 2 hours
Parameter measured: IC50 (nM)
# value in nM; strip the unit string

Can you share its IC50? I mean this molecule: `Cc1c(C(=O)N(C)c2ccc(O)cc2)cc(-c2cc(CCNC(=O)Oc3ccccc3)ccc2C(=O)N2Cc3ccccc3C[C@H]2C)n1C`
38.9

----------
# Experimental target: Bcl-2 protein (histag-Bcl-2, UniProtKB P10415) (Homo sapiens (Human), UniProt P10415)
# Assay summary: Inhibition of Bcl-2 by the fluorescence polarisation technique
# Format: binding
# Conditions used: incubation for 2 hours, read-out: IC50 (nM) Bcl-2 FP
Structures can show the parent of a compound that is named as a salt.
Parameter measured: log10(IC50) (log10 of the value in nM)
Annotation: log10 of IC50, nM basis.

# get_value(readout= log10(IC50), system= Bcl-2 protein (histag-Bcl-2, UniProtKB P10415) (Homo sapiens (Human), UniProt P10415)) for `Cc1cc(N(C(=O)c2cc(-c3cc(Cl)ccc3C(=O)N3Cc4ccccc4C[C@H]3CN3CCOCC3)n(C)c2C)c2ccc(O)cc2)no1`
1.12

# get_value(readout= log10(IC50), system= Bcl-2 protein (histag-Bcl-2, UniProtKB P10415) (Homo sapiens (Human), UniProt P10415)) for `COc1ncc(N(C(=O)c2cc(-c3cc(Cl)ccc3C(=O)N3Cc4ccccc4C[C@H]3CN3CCOCC3)n(C)c2C)c2ccc(O)cc2)cn1`
0.65

# get_value(readout= log10(IC50), system= Bcl-2 protein (histag-Bcl-2, UniProtKB P10415) (Homo sapiens (Human), UniProt P10415)) for Cc1c(C(=O)N(c2ccc(O)cc2)c2cnc3c(ccn3C)c2)cc(-c2cc(Cl)ccc2C(=O)N2Cc3ccccc3C[C@H]2CN2CCN(C)CC2)n1C [Example 102, trihydrochloride]
0.30

# get_value(readout= log10(IC50), system= Bcl-2 protein (histag-Bcl-2, UniProtKB P10415) (Homo sapiens (Human), UniProt P10415)) for Cc1c(N(C(=O)c2cc(-c3cc(Cl)ccc3C(=O)N3Cc4ccccc4CC3C(F)(F)F)n(C)c2C)c2ccc(O)cc2)cc(C#N)n1C (centres unmarked)
0.81

# get_value(readout= log10(IC50), system= Bcl-2 protein (histag-Bcl-2, UniProtKB P10415) (Homo sapiens (Human), UniProt P10415)) for Cc1c(C(=O)N(c2ccc(O)cc2)c2cc(C#N)n(CCN3CCOCC3)c2C)cc(-c2cc(Cl)ccc2C(=O)N2Cc3ccccc3C[C@H]2C)n1C [Example 455, hydrochloride]
0.28

# get_value(readout= log10(IC50), system= Bcl-2 protein (histag-Bcl-2, UniProtKB P10415) (Homo sapiens (Human), UniProt P10415)) for Cc1c(C(=O)N(c2ccc(O)cc2)c2cc(C#N)n(C)c2)cc(-c2ccccc2C(=O)N2Cc3ccccc3C[C@H]2CN2CCOCC2)n1C [Example 433, hydrochloride]
0.41

# get_value(readout= log10(IC50), system= Bcl-2 protein (histag-Bcl-2, UniProtKB P10415) (Homo sapiens (Human), UniProt P10415)) for Cc1c(N(C(=O)c2cc(-c3cc(Cl)ccc3C(=O)N3Cc4ccccc4C[C@H]3CCCN3CCOCC3)n(C)c2C)c2ccccc2)cc(C#N)n1C [Example 461, hydrochloride]
0.49

# get_value(readout= log10(IC50), system= Bcl-2 protein (histag-Bcl-2, UniProtKB P10415) (Homo sapiens (Human), UniProt P10415)) for COCCn1c(-c2cc3c(cc2C(=O)N2Cc4ccccc4C[C@H]2CN2CCOCC2)OCO3)cc(C(=O)N(c2ccc(O)cc2)c2cnn(C)c2)c1C [Example 93, hydrochloride]
1.29

# get_value(readout= log10(IC50), system= Bcl-2 protein (histag-Bcl-2, UniProtKB P10415) (Homo sapiens (Human), UniProt P10415)) for `COc1ncc(N(C(=O)c2cc(-c3cc4c(cc3C(=O)N3Cc5ccccc5C[C@H]3C)OCO4)n(C)c2C)c2ccc(O)cc2)cn1`
0.64

# get_value(readout= log10(IC50), system= Bcl-2 protein (histag-Bcl-2, UniProtKB P10415) (Homo sapiens (Human), UniProt P10415)) for COc1cc(C(=O)N2Cc3ccccc3C[C@H]2CN2CCOCC2)c(-c2cc(C(=O)N(c3ccc(O)cc3)c3cc(C#N)ccn3)c(C)n2C)cc1F [Example 435, hydrochloride]
1.17

# get_value(readout= log10(IC50), system= Bcl-2 protein (histag-Bcl-2, UniProtKB P10415) (Homo sapiens (Human), UniProt P10415)) for Cc1c(N(C(=O)c2cc(-c3ccc(F)cc3C(=O)N3Cc4ccccc4C[C@H]3CN3CCOCC3)n(C)c2C)c2ccc(O)cc2)cc(C#N)n1C [Example 428, hydrochloride]
0.54

The reported numbers originate from patent US9108983B2.
